Data origin, for the record: ChEMBL document CHEMBL4513216

- assay_comment: Toxicity liver stage against HepG2, at 10uM
- Format: cell-based
- Set-up: test concentration 10 uM, cell line HepG2-A16-CD81EGFP
- condition_parameters: human, HepG2-A16-CD81EGFP cells; read-out: INHIBITION
parameter_measured: cytotoxicity at 10 µM

                                   compound    result
0  CCc1cc(O)nc(C2CCCN2C(=O)c2cc(C)no2)n1 (centres undefined)     2.69%
1  O=C1C[C@@H]2CC[C@H](CN1)N2C(=O)CCc1ccccc1  -0.0739%
2  CCNC(=O)N1CCN(Cc2nc3ccccc3[nH]2)[C@@H]2CS(=O)(=O)C[C@@H]21     14.1%

Turning now to a further record.
// cytotoxicity at 10 µM value for CO[C@@H]1CCC[C@@H](N(C)C(=O)c2cn3cc(C)ccc3n2)[C@H]1O : 0.829%
